- assay system: Axl (UniProt P30530)
- Sequence (P30530 26-451 limits assumed): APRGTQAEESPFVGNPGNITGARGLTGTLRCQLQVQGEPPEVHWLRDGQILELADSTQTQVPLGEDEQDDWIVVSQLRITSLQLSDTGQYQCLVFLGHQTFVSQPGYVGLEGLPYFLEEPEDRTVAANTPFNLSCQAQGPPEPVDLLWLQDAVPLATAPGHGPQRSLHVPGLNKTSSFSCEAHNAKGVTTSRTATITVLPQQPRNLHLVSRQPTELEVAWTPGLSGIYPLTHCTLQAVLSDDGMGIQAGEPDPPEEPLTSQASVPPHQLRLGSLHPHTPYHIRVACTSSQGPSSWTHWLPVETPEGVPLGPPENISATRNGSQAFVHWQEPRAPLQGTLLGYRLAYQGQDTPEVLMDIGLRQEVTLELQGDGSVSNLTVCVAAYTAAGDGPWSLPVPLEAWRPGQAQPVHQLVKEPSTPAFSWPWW
- measurement description: ELISA, 1:9 dilution
endpoint: Affinity ELISA CPE mutant ratio (1:9, pH 6.0/7.4)
// no unit, no text: just the number

Known results for binders:
{"binder": "LC-V029N (antibody, V domains shown) VH: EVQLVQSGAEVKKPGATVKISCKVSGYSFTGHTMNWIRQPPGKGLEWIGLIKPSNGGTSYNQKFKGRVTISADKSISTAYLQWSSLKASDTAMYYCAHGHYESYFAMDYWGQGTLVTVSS VL: DIQMTQSPSSLSASVGDRVTITCKASQDNSSAVAWYQQKPGQAPRLLIYWASTRHTGVPSRFSGSGSGTEFTLTISSLQPDDFATYYCQEHFSTPLTFGQGTKVEIK", "result": 2.65}
{"binder": "HC-S103D (antibody, V domains shown) VH: EVQLVQSGAEVKKPGATVKISCKVSGYSFTGHTMNWIRQPPGKGLEWIGLIKPSNGGTSYNQKFKGRVTISADKSISTAYLQWSSLKASDTAMYYCAHGHYEDYFAMDYWGQGTLVTVSS VL: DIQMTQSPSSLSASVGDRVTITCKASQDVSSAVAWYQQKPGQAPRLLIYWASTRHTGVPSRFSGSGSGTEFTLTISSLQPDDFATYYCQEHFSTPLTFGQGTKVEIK", "result": 2.23}
{"binder": "HC-F105T (antibody, V domains shown) VH: EVQLVQSGAEVKKPGATVKISCKVSGYSFTGHTMNWIRQPPGKGLEWIGLIKPSNGGTSYNQKFKGRVTISADKSISTAYLQWSSLKASDTAMYYCAHGHYESYTAMDYWGQGTLVTVSS VL: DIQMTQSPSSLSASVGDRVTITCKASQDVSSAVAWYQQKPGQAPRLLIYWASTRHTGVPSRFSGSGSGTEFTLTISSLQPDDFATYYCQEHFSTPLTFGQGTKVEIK", "result": 4.02}
{"binder": "HC-H100D (antibody, V domains shown) VH: EVQLVQSGAEVKKPGATVKISCKVSGYSFTGHTMNWIRQPPGKGLEWIGLIKPSNGGTSYNQKFKGRVTISADKSISTAYLQWSSLKASDTAMYYCAHGDYESYFAMDYWGQGTLVTVSS VL: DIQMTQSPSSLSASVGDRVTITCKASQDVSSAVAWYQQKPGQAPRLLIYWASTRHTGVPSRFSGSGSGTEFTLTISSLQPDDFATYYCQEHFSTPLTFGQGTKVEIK", "result": 3.09}

Let's switch to this binder now.
Exercise: Give the reported Affinity ELISA CPE mutant ratio (1:9, pH 6.0/7.4) for this binder. LC-H091Q (antibody, V domains shown) VH: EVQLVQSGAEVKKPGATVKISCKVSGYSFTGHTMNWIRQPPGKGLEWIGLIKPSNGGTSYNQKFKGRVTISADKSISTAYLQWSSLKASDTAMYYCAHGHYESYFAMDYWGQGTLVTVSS VL: DIQMTQSPSSLSASVGDRVTITCKASQDVSSAVAWYQQKPGQAPRLLIYWASTRHTGVPSRFSGSGSGTEFTLTISSLQPDDFATYYCQEQFSTPLTFGQGTKVEIK
Key: 2.01
